# Experimental system: human P2X3 receptor (Homo sapiens (Human), UniProt P56373)
# Sequence (P56373 whole entry): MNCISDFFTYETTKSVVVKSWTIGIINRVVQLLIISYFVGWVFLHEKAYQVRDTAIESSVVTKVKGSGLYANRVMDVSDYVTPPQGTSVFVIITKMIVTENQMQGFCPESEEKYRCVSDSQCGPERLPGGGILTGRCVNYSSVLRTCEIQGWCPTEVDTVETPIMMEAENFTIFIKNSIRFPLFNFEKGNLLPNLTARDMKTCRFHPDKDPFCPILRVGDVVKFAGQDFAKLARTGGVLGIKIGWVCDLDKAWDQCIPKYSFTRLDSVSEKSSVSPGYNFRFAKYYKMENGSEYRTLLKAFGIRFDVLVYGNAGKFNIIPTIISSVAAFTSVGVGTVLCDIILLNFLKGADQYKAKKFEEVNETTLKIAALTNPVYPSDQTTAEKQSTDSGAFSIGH
# Assay comment: Evaluation of human P2X3 receptor inhibitory activity (Fluo-3 calcium fluorescence, FDSS 3000, ATP stimulation);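 note: stimulus was 50 nM ATP with fluorescence followed for 3 min, and the response per well was peak post-ATP fluorescence divided by the reading at measurement start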
# Type: cell-based
# Settings: C6BU-1 cells stably expressing human P2X3 receptor, Fluo-3 fluorescence, FDSS 3000
Parameter measured: IC50 (nM)
Dear colleague, please return just the value in nM, with no unit written.

Please tell me the measured IC50 for COC(=O)[C@H](C)[C@H](C)n1c(=O)[nH]/c(=N\c2ccc(OC(C)C)c(Cl)c2)n(Cc2ccc(C)cc2)c1=O ; system: human P2X3 receptor (Homo sapiens (Human), UniProt P56373).
14

Please tell me the measured IC50 for COC(=O)CC1(Cn2c(=O)[nH]/c(=N\c3ccc(OC(C)C)c(Cl)c3)n(Cc3ccc(C)cc3)c2=O)CC1 ; system: human P2X3 receptor (Homo sapiens (Human), UniProt P56373).
6

Please tell me the measured IC50 for CSc1cccc(/N=c2\[nH]c(=O)n(C[C@H](C)C(=O)O)c(=O)n2Cc2ccc(Cl)cc2)c1 ; system: human P2X3 receptor (Homo sapiens (Human), UniProt P56373).
110

Please tell me the measured IC50 for C/C=C/c1ccc(Cn2c(=O)n(C[C@H](C)C(=O)OC)c(=O)[nH]/c2=N\c2ccc(OC(C)C)cc2)cc1 ; system: human P2X3 receptor (Homo sapiens (Human), UniProt P56373).
911

Please tell me the measured IC50 for Cc1cc(Oc2ccc(/N=c3\[nH]c(=O)n(C[C@H](O)CO)c(=O)n3Cc3ccc(Cl)cc3)cc2)no1 ; system: human P2X3 receptor (Homo sapiens (Human), UniProt P56373).
12

Please tell me the measured IC50 for Cc1ccc(Cn2c(=O)n(C[C@H](C)C(=O)O)c(=O)[nH]/c2=N\c2ccc(OC(C)C)c(Br)c2)cc1 ; system: human P2X3 receptor (Homo sapiens (Human), UniProt P56373).
7

Please tell me the measured IC50 for CC(C)Oc1ccc(/N=c2\[nH]c(=O)n(CCC(=O)O)c(=O)n2CC2C[C@H]3CC[C@@H]2C3)cc1F (stereo partly shown) ; system: human P2X3 receptor (Homo sapiens (Human), UniProt P56373).
552

Please tell me the measured IC50 for COC(=O)[C@@H](C)Cn1c(=O)[nH]/c(=N\c2ccc(OC3CC3)c(Cl)c2)n(Cc2ccc(C)cc2)c1=O ; system: human P2X3 receptor (Homo sapiens (Human), UniProt P56373).
18

Please tell me the measured IC50 for CC(C)Oc1ccc(/N=c2\[nH]c(=O)n(CC(=O)NS(C)(=O)=O)c(=O)n2Cc2ccc(Cl)cc2)cc1Cl ; system: human P2X3 receptor (Homo sapiens (Human), UniProt P56373).
35

Please tell me the measured IC50 for COc1ccc(Oc2ccc(/N=c3\[nH]c(=O)n(CC(N)=O)c(=O)n3Cc3ccc(Cl)cc3)cc2)cn1 ; system: human P2X3 receptor (Homo sapiens (Human), UniProt P56373).
8

Please tell me the measured IC50 for CCOC(=O)CCn1c(=O)[nH]/c(=N\c2ccc(OCC(C)(C)C)cc2)n(Cc2ccc(C)cc2)c1=O ; system: human P2X3 receptor (Homo sapiens (Human), UniProt P56373).
177

Please tell me the measured IC50 for Cc1ccc(Cn2c(=O)n(CC3(C(=O)O)CC3)c(=O)[nH]/c2=N\c2ccc(OCC3CC3)c(Cl)c2)cc1 ; system: human P2X3 receptor (Homo sapiens (Human), UniProt P56373).
69

Please tell me the measured IC50 for Cc1ccc(Cn2c(=O)n(CC3(CC(=O)O)CC3)c(=O)[nH]/c2=N\c2ccc(OC(C)C)c(C)c2)cc1 ; system: human P2X3 receptor (Homo sapiens (Human), UniProt P56373).
21
